// read-out pIC50, gathered for MALT1 (Homo sapiens, UniProt Q9UDY8) from published studies
pIC50: −log10 of the molar value.

# annotated cases, reported pIC50 shown
Cn1ncc2cccc(NS(=O)(=O)c3cnn(-c4cc(C5(F)CCC5)ccn4)c3)c21    < 5.60
CS(=O)(=O)CCNC(=O)c1ncc(NC(=O)c2cc(F)c(-c3ccc(F)cc3N)cc2Cl)cc1Cl    7.00 to 8.00
[2H]C([2H])([2H])Oc1ccc2cnn(C)c2c1NS(=O)(=O)c1cnn(-c2cc(C(F)(F)F)ccn2)c1    ≥ 6.40
CCc1ccc2c(c(C)nn2C)c1NS(=O)(=O)c1cnn(-c2ccnc(C(F)(F)F)c2)c1    ≥ 6.40
Cn1ncc2cccc(NS(=O)(=O)c3ccc(-c4cncnc4)nc3)c21    < 5.60
C#Cc1cnccc1-c1cc(Cl)c(C(=O)Nc2cnc(C(=O)NCC)c(Cl)c2)cc1F    ≥ 8.00
COc1ccc2cnn(C)c2c1NS(=O)(=O)c1ccc(-c2nc(C)nn2C)nc1    5.60 to 6.00

Moving on to another molecule below.
-- ask Record lookup: for MALT1 (Homo sapiens, UniProt Q9UDY8), what pIC50 belongs to `Cn1ncc2cccc(NS(=O)(=O)c3ccc(-c4cnc(C5CC5)s4)nc3)c21` ?
-- reply < 5.60
